- testMethodNotes: Human HepG2 cell viability assay in 384 well format
- Assay type: toxicity, cell-based
- Set-up: dose 125 nL, time 70.5 hour; concentration not given beside the values
- experimentalParameters: HepG2 cells, read-out: Inhibition
Would you mind telling me the reported cytotoxicity at 70.5 h of each entry?
Write the numeric value and follow it with the unit.

# return cytotoxicity at 70.5 h for each item in the list
1. CC(=O)N1CCOC(c2ccnc(N(C)C)n2)C1 (stereo not given)
2. CCN(CC)CC(=O)N1CCCC1Cn1cccn1 (stereo not given)
3. CN(C)CCCC(=O)NC1CC(C)(C)Cc2nc(C(C)(C)C)ncc21 (stereo not given)
4. COCCN1CCN(c2cccc(C)n2)Cc2ccc(C)nc21
5. CC(C)CCC(=O)NC(C#N)CC(C)C (stereo not given)
6. O=C1C[C@H]2CC[C@@H](CN1)N2C(=O)CCc1ccc2c(c1)OCO2
7. COc1ccc(C)cc1NC(=O)Nc1cnc(N2CCN(C)CC2)nc1
8. CN1CCN(Cc2cnc3n2CCN(C(=O)c2ccnnc2)C3)CC1

Reply |
1. 1.91%
2. -4.89%
3. -17.7%
4. 2.66%
5. 3.54%
6. -12.8%
7. 16.2%
8. -14.6%

# return cytotoxicity at 70.5 h for each item in the list
1. CCN1CCN(C2CCN(Cc3nnc(C(C)C)o3)CC2)C1=O
2. Cc1cnn(CC2CCCN2C(=O)c2ccc(OCC3CC3)nc2)c1 (stereo not given)
3. Cc1cc(-n2cccn2)ccc1CN1C[C@@H](CN(C)C)[C@@H](CO)C1
4. COC(=O)c1ccoc1CN(C)CC(=O)NC1CCS(=O)(=O)C1 (stereo not given)
5. Cc1nc2ccccc2nc1CN1CCCC1Cn1cncn1 (stereo not given)
6. Cc1ccsc1C(=O)NCCCn1nc2ccccn2c1=O
7. COc1ccc2c(=O)n(CC3CCNC3)ccc2c1OC (stereo not given)
8. N#Cc1ccc(Cn2cncn2)c(F)c1

Reply |
["-7.93%", "-6.47%", "-8.41%", "3.53%", "19.7%", "-4.38%", "1.63%", "-12.7%"]

# return cytotoxicity at 70.5 h for each item in the list
1. Cc1nn(C(C)C)c(C)c1S(=O)(=O)Nc1cccc(C(=O)O)c1
2. Cc1nc(CN(C)C2CCCN(c3cccnn3)C2)no1 (stereo not given)
3. COc1cccc(CC(=O)NC2CCCc3cn[nH]c32)c1 (stereo not given)
4. Cc1cc(C)nc(C2CCN(C(=O)c3cncnc3C)C2)n1 (stereo not given)

Reply |
-5.93%
17.1%
-0.729%
12.9%

---

- testMethodNotes: Human HepG2 cell viability assay in 384 well format
- Format: toxicity, cell-based
- Design: dose 125 nL, time 70.5 hour; concentration not given beside the values
- experimentalParameters: HepG2 cells, read-out: Inhibition
Would you mind telling me the reported cytotoxicity at 70.5 h of each entry?
One number for each entry, in %.

As a guide, the following entries are already answered.
>>> print(df.to_string())
                                   molecule  reported
0  CCS(=O)(=O)N1CCC2(CC1)CN(CC1CCOC1)c1ccccc12 (centres undefined)        26
1     O=C(Cn1nnc(-c2cc3ccccc3o2)n1)N1CCOCC1     -18.1
2      Fc1ccc(CN2CCCn3nnc(COCC4CC4)c3C2)cc1      16.6

# return cytotoxicity at 70.5 h for each item in the list
1. CC(CN1CCCC1=O)NC(=O)c1cc(Cl)c2c(c1)OCO2 (centres undefined)
2. CCc1nc(CN(C(C)=O)C2CCN(CCc3ccncc3)C2)no1 (centres undefined)

Reply |
7.24
11.6

---

- testMethodNotes: Human HepG2 cell viability assay in 384 well format
- Assay type: toxicity, cell-based
- Parameters: dose 125 nL, time 70.5 hour; concentration not given beside the values
- experimentalParameters: HepG2 cells, read-out: Inhibition
# if value of cytotoxicity at 70.5 h reaches 10%, tag label 1; if it stays below, tag label 0

Ask | // inclusive: cytotoxicity at 70.5 h at least 10%? input: CC(=O)Nc1ccc(CC(=O)N2CC(S(=O)(=O)C3CCCCC3)C2)cc1
Reply | label 0

Ask | And N#CC1(C(=O)NCC2CCC3(CCNCC3)O2)CC1 (stereo unspecified) ?
Reply | label 1

Ask | And COCC1c2c(cnn2CC2CC2)CCN1Cc1cccs1 (stereo unspecified) ?
Reply | label 0

Ask | And CCN(Cc1ccco1)C(=O)Nc1cc(C(F)(F)F)c[nH]c1=O ?
Reply | label 1

Ask | And COC(=O)c1ccn(COc2ccccc2Cl)n1 ?
Reply | label 0

Ask | And O=C(C1CC1)N1C[C@@H](F)[C@@H](OCc2nc3cc(F)ccc3[nH]2)C1 ?
Reply | label 0

---

- testMethodNotes: Human HepG2 cell viability assay in 384 well format
- Format: toxicity, cell-based
- Design: dose 125 nL, time 70.5 hour; concentration not given beside the values
- experimentalParameters: HepG2 cells, read-out: Inhibition
Would you mind telling me the reported cytotoxicity at 70.5 h of each entry?
Give bare numbers, in %.

In [3]: df
Out[3]:
                                   compound            quantityname  reported
0  CCC(CNC(=O)C1CCC1)(OC)c1ccccc1 (stereo unspecified)  cytotoxicity at 70.5 h     -1.73

# return cytotoxicity at 70.5 h for each item in the list
1. CCn1c(C2CCCNC2)nn(Cc2ccc(C(=O)NC)o2)c1=O (stereo unspecified)
2. Cc1nc(C)n(CC2CCCN2Cc2nc(-c3ccco3)no2)n1 (stereo unspecified)
3. CCOc1cncc(N2CCOCC2)n1

Reply |
[-3.04, -4.04, -7.42]

# return cytotoxicity at 70.5 h for each item in the list
1. CS(=O)(=O)N1CC2(CCN(c3nccs3)CC2)c2ccccc21
2. Cc1ccc(NC(=O)N(C)Cc2cnn(C)c2)cc1OCC(F)F

Reply |
1. 5.59
2. 26.4

---

- testMethodNotes: Human HepG2 cell viability assay in 384 well format
- Type: toxicity, cell-based
- Parameters: dose 125 nL, time 70.5 hour; concentration not given beside the values
- experimentalParameters: HepG2 cells, read-out: Inhibition
Would you mind telling me the reported cytotoxicity at 70.5 h of each entry?
Numbers only, in %.

In [3]: df
Out[3]:
                                   molecule  reported
0  CC(c1cccc(-c2nccn2CCc2cn[nH]c2)c1)N(C)C (configuration not stated)      4.99

# return cytotoxicity at 70.5 h for each item in the list
1. Cc1cc(C)n(C2CN(CC(O)c3cc(F)ccc3F)C2)n1 (configuration not stated)
2. Cc1nn(C)c2cnn(Cc3ccc(C(=O)NCC4CCCO4)o3)c12 (configuration not stated)
3. COc1ccccc1CNC(=O)Cn1nc(-c2ccc(F)cc2)oc1=O
4. CC(O)CN1CCN(Cc2cccc(C(=O)N(C)C)c2)CC1 (configuration not stated)
5. O=C1N(c2ccsc2)CCC12CCCN(c1ccccn1)C2 (configuration not stated)
6. COc1ccccc1OCC(=O)NCC(C)(O)C1CC1 (configuration not stated)

Reply |
1. 6.16
2. -5.42
3. 10.9
4. -2.45
5. 5.29
6. -15.3

# return cytotoxicity at 70.5 h for each item in the list
1. COCc1nc(C2CC2)nn1-c1ccccc1Cl
2. CC(=O)c1cccc(NC(=O)CN2CCCCC2C)c1 (configuration not stated)
3. COc1cc(F)ccc1-c1cc(N)ccn1
4. CN(C)CCCNC(=O)c1ccnc(OCc2ccccc2)c1
5. CN1CCCNC(=O)C12CCN(C(=O)c1ccc3[nH]cnc3c1)CC2

Reply |
1: -2.98; 2: -2.56; 3: -0.436; 4: -1.38; 5: -3.14

---

- testMethodNotes: Human HepG2 cell viability assay in 384 well format
- Type: toxicity, cell-based
- Parameters: dose 125 nL, time 70.5 hour; concentration not given beside the values
- experimentalParameters: HepG2 cells, read-out: Inhibition
Would you mind telling me the reported cytotoxicity at 70.5 h of each entry?
Numbers only, in %.

>>> print(df.to_string())
                                   compound  reported
0  CN(C)CC1(O)CCN(C(=O)Cc2ccc3ccccc3c2)C1 (stereo unspecified)      -1.7
1  O=C1CC(c2ccccc2F)c2c(n3ccsc3nc2=O)N1 (stereo unspecified)       -14
2  O=C1CCC[C@]2(CN(S(=O)(=O)C3CCCCC3)C[C@H]2c2cccnc2)N1     -3.41

# return cytotoxicity at 70.5 h for each item in the list
1. O=C(Cc1ccccc1)N1CCN(CC(O)c2ccc(F)cc2)CC1 (stereo unspecified)
2. Cc1ncsc1-c1nnc(C2CCCN2C(=O)CCn2cccn2)o1 (stereo unspecified)

Reply |
1: -4.03; 2: -9.26

Ask | Find the recorded cytotoxicity at 70.5 h belonging to CO[C@@H]1CCN(Cc2cnn(C)c2)[C@@H]2CN(Cc3ccco3)C[C@@H]21 and report it.
Reply | -13.3
